# measured_on: TWEAKR protein (TPP-2305) (Homo sapiens, UniProt Q9NP84)
# Construct: TPP-2305; hTNFRSF12Aaa28-80; Human; 30R-AT080; 168; purchased Fitzgerald Inc 30R-AT080
# protocol_notes: Biacore monovalent KD with TWEAKR protein
# Format: binding
# assay_conditions: monovalent KD
assay_metric: Kd (nM)
One number for each entry, in nM.

Query: Hello, please tell me recorded Kd for this one: PDL-192(TPP-1104): reference agonistic anti-TWEAKR antibody, human IgG1, variable domains from WO2009/020933; SEQ ID NO 127/128 [reference compound]
Reply: 3.7
